- Assay target: human melanocortin 4 receptor (human), P32245
- Sequence (P32245 whole entry): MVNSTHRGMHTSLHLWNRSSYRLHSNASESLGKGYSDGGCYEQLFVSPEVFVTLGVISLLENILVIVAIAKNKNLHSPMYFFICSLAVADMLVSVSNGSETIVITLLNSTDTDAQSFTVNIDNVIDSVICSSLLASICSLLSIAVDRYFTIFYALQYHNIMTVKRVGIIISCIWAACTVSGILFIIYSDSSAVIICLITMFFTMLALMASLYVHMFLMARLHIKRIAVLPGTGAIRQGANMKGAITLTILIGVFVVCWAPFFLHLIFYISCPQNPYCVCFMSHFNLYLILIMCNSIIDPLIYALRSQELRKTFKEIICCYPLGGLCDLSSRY
- Run description: competition with 125-NDP-α-MSH, BHK human MC4R membranes
pKi: −log10 of the molar value.
# pKi per entry
Value type: pKi

>>> value("CAHFRWCAAAAR (modifications not checked) [Chem. 89]")
10.15
>>> value("CAHFRWCAAAAW (modifications not checked) [Chem. 88]")
9.70
>>> value("CAHFRWCAYFKW (modifications not checked) [Chem. 80]")
9.80
